Biological target: T1, 4H2721-AA
T1 chain: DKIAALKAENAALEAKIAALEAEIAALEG
Test: two-hybrid library CCmax;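 note: natural log of median RNA to DNA barcode read ratio; higher means stronger binding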
Details: mean of both orientations
recorded_metric: interaction score

These recorded examples may help you get a feel for the data.
>>> observed_measurement("DEIAALEAENAALEAEIAALKAENAALKG [4H140-AA]")
-1.25
>>> observed_measurement("DENAALEAEIAALKAKIAALKAKNAALKG [4H1136-AA]")
-1.15
>>> observed_measurement("DENAALEAEIAALKAENAALEAKIAALKG [4H1110-AA]")
-0.718

[A] DENAALKAKIAALEAEIAALKAEIAALKG [4H1802-AA]
[B] DKIAALKAEIAALEAKIAALEAKNAALKG [4H2600-AA]
[C] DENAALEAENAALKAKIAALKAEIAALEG [4H1257-AA]
Request: List the 3 entries from lowest interaction score to highest interaction score value. Form entry: labels listed in requested order.
Result: A, B, C

FYI, the data here is from paper PMC10397247.
